system: Staphylococcus aureus; assay: Bactericidal activity against MLS/methicillin-resistant Staphylococcus aureus PU 32 expressing inducible ermA gene pretreated followed by subculture in absence of compound measured after 24 hrs; format: functional
observedProperty: MBC

These solved cases illustrate the format of a correct answer.
{"columns": ["smilesRecord", "testSystem", "MBC"],
 "data": [
  ["CC[C@H]1OC(=O)[C@@](C)(F)C(=O)[C@H](C)[C@@H](O[C@@H]2O[C@H](C)C[C@H](N(C)C)[C@H]2O)[C@](C)(OC)C[C@@H](C)/C(=N\\OC/C=C/c2cncc(N)c2)[C@H](C)[C@H]2OC(=O)O[C@@]21C", "Staphylococcus aureus", "> 4 µg/mL"],
  ["O=C(O)c1cn(C2CC2)c2cc(N3CCNCC3)c(F)cc2c1=O", "Staphylococcus aureus", "> 256 µg/mL"],
  ["CC[C@H]1OC(=O)[C@@](C)(F)C(=O)[C@H](C)[C@@H](O[C@@H]2O[C@H](C)C[C@H](N(C)C)[C@H]2O)[C@](C)(OC/C=C/c2ccc3[nH]cc(C(=O)O)c(=O)c3c2)C[C@@H](C)/C(=N\\OC)[C@H](C)[C@H]2OC(=O)O[C@@]21C", "Staphylococcus aureus", "2 µg/mL"]
]}

Q: Give MBC only, for CC[C@H]1OC(=O)[C@@](C)(F)C(=O)[C@H](C)[C@@H](O[C@@H]2O[C@H](C)C[C@H](N(C)C)[C@H]2O)[C@](C)(OC)C[C@@H](C)/C(=N\OCC#Cc2ccc3c(c2)c(=O)c(C(=O)NC)cn3CC)[C@H](C)[C@H]2OC(=O)O[C@@]21C , using Staphylococcus aureus data.
A: > 16 µg/mL

====

Let's look at some compounds and their measured MBC.
tested on: Staphylococcus aureus; test: Bactericidal activity against MLS-resistant Staphylococcus aureus PU 20 expressing constitutive ermC gene pretreated followed by subculture in absence of compound measured after 24 hrs; format: functional

Q: Give the reported value of MBC for this record: CC[C@H]1OC(=O)[C@@](C)(F)C(=O)[C@H](C)[C@@H](O[C@@H]2O[C@H](C)C[C@H](N(C)C)[C@H]2O)[C@](C)(OC)C[C@@H](C)/C(=N\OCC#Cc2ccc3c(c2)c(=O)c(C(=O)O)cn3C2CC2)[C@H](C)[C@H]2OC(=O)O[C@@]21C
A: 128 µg/mL

Q: Give the reported value of MBC for this record: CC[C@H]1OC(=O)[C@@](C)(F)C(=O)[C@H](C)[C@@H](O[C@@H]2O[C@H](C)C[C@H](N(C)C)[C@H]2O)[C@](C)(OC)C[C@@H](C)/C(=N\OC/C=C/c2cncc(C(N)=O)c2)[C@H](C)[C@H]2OC(=O)O[C@@]21C
A: > 256 µg/mL

Q: Give the reported value of MBC for this record: CC[C@H]1OC(=O)[C@@](C)(F)C(=O)[C@H](C)[C@@H](O[C@@H]2O[C@H](C)C[C@H](N(C)C)[C@H]2O)[C@](C)(OC)C[C@@H](C)/C(=N\OC/C=C/c2cncc(O)c2)[C@H](C)[C@H]2OC(=O)O[C@@]21C
A: > 256 µg/mL

Q: Give the reported value of MBC for this record: CC[C@H]1OC(=O)[C@@](C)(F)C(=O)[C@H](C)[C@@H](O[C@@H]2O[C@H](C)C[C@H](N(C)C)[C@H]2O)[C@](C)(OC)C[C@@H](C)/C(=N\OCC#Cc2ccc3c(c2)c(=O)c(C(=O)NC)cn3C2CC2)[C@H](C)[C@H]2OC(=O)O[C@@]21C
A: > 256 µg/mL
